Test system: W256
Assay method text: Antitumor activity against rat Walker 256 cells allografted in Sprague-Dawley rat at 2.5 mg/kg/day, ip relative to control
Format: functional
Measurement context: route intraperitoneal
Measured T/C, listed per entry for reference.
Endpoint label: T/C (%)

INSERT INTO results (compound, assay_value) VALUES
  ('C=C1CC(C)(Cn2cc(COC(=O)c3cc(OC)c(OC)c(OC)c3)c(=O)[nH]c2=O)OC1=O (configuration not stated)', 209),
  ('C=C1CC(C)(Cn2cc(COC(=O)/C=C/c3ccccc3)c(=O)[nH]c2=O)OC1=O (configuration not stated)', 211),
  ('C=C1C(=O)O[C@H]2[C@H]1[C@H](OC(=O)/C(C)=C/CO)C/C(C)=C/CC[C@@]1(CO)O[C@H]21', 330),
  ('C=C1CC(C)(Cn2cc(C)c(=O)[nH]c2=O)OC1=O (configuration not stated)', 127),
  ('N[C@@H](Cc1ccc(N(CCCl)CCCl)cc1)C(=O)O', 317),
  ('C=C1C(=O)O[C@H]2/C=C(/C)[C@H](CO)C/C=C(\C)C[C@@H](OC(=O)/C(=C/CO)CO)[C@@H]12', 471),
  ('C=C1CC(C)(Cn2ccc(=O)[nH]c2=O)OC1=O (configuration not stated)', 131);
